Answer each item with its documented viability, T/C.
# Test system: 217524-143-R1-J4-PDC spheroids with HUVEC/MSC, viability;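 further: spheroids exposed to agents for seven days before reading; 100% = DMSO vehicle control viability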
# assay.procedure: Anticancer human tumor 217524-143-R1-J4-PDC patient-derived pancreatic carcinoma cell line growth inhibition [CLK]
# assay.conditions: second compound 3.16 µM; first compound 1 µM; stronger effect = lower value

Input line: For the compound CC(=O)O[C@H]1C(=O)[C@@]2(C)[C@H]([C@H](OC(=O)c3ccccc3)[C@]3(O)C[C@H](OC(=O)[C@H](O)[C@@H](NC(=O)c4ccccc4)c4ccccc4)C(C)=C1C3(C)C)[C@]1(OC(C)=O)CO[C@@H]1C[C@@H]2O + CNC(=O)c1ccc(Nc2nc(OC3CCCC3)c3c(-c4ccc5nc(C)oc5c4)c[nH]c3n2)c(OC)c1 , report viability, T/C.
Output line: 34.8%

Input line: For the compound Nc1ccn(C2OC(CO)C(O)C2(F)F)c(=O)n1 (stereo not drawn) + CN1CCN(c2cc(C(=O)Nc3cc4cc(-c5cnn(C)c5)ccc4cn3)ccn2)CC1 , report viability, T/C.
Output line: 0.76%

Input line: For the compound CC(CO)NC(=O)c1cc(-c2ccc(Cl)cc2)nn(-c2cnn(C)c2)c1=O (stereo not drawn) + CN1CCN(c2cc(C(=O)Nc3cc4cc(-c5cnn(C)c5)ccc4cn3)ccn2)CC1 , report viability, T/C.
Output line: 0.99%

Input line: For the compound O=C(c1cc(Cc2n[nH]c(=O)c3ccccc23)ccc1F)N1CCN(C(=O)C2CC2)CC1 + CNC(=O)c1ccc(Nc2nc(OC3CCCC3)c3c(-c4ccc5nc(C)oc5c4)c[nH]c3n2)c(OC)c1 , report viability, T/C.
Output line: 26.5%

Input line: For the compound CC1(C)CCC(CN2CCN(c3ccc(C(=O)NS(=O)(=O)c4ccc(NCC5CCOCC5)c([N+](=O)[O-])c4)c(Oc4cnc5[nH]ccc5c4)c3)CC2)=C(c2ccc(Cl)cc2)C1 + CN1CCN(c2cc(C(=O)Nc3cc4cc(-c5cnn(C)c5)ccc4cn3)ccn2)CC1 , report viability, T/C.
Output line: 0.45%

Input line: For the compound Nc1ccn(C2OC(CO)C(O)C2(F)F)c(=O)n1 (stereo not drawn) + CNC(=O)c1ccc(Nc2nc(OC3CCCC3)c3c(-c4ccc5nc(C)oc5c4)c[nH]c3n2)c(OC)c1 , report viability, T/C.
Output line: 13.5%

Input line: For the compound CC(CO)NC(=O)c1cc(-c2ccc(Cl)cc2)nn(-c2cnn(C)c2)c1=O (stereo not drawn) + CNC(=O)c1ccc(Nc2nc(OC3CCCC3)c3c(-c4ccc5nc(C)oc5c4)c[nH]c3n2)c(OC)c1 , report viability, T/C.
Output line: 31.8%

Input line: For the compound CC(=O)O[C@H]1C(=O)[C@@]2(C)[C@H]([C@H](OC(=O)c3ccccc3)[C@]3(O)C[C@H](OC(=O)[C@H](O)[C@@H](NC(=O)c4ccccc4)c4ccccc4)C(C)=C1C3(C)C)[C@]1(OC(C)=O)CO[C@@H]1C[C@@H]2O + CN1CCN(c2cc(C(=O)Nc3cc4cc(-c5cnn(C)c5)ccc4cn3)ccn2)CC1 , report viability, T/C.
Output line: 0.62%
